system: Pseudomonas aeruginosa FADDI-PA01; assay type: cell-based; conditions: FADDI-
Where a SMILES comes first, the peptide text is derived from it. Bridges are numbered along the chain shown (N, C = ends). [ ]: non-standard residue; d: D form. The star is where a group is joined. X22 = Cn1c(C(=O)*)cc2ccccc21; Dab = NCC[C@H](N)C(=O)O; Dap = NC[C@H](N)C(=O)O
property measured: Minimum inhibitory concentration

Need Minimum inhibitory concentration of CC(C)C[C@H]1NC(=O)[C@H](CCN)NC(=O)[C@@H](NC(=O)[C@H](CN)NC(=O)[C@@H](NC(=O)[C@H](CCN)NC(=O)c2cc3ccccc3n2C)[C@@H](C)O)CCNC(=O)[C@H]([C@@H](C)O)NC(=O)[C@H](CCN)NC(=O)[C@H](CCN)NC(=O)[C@H](C)NC1=O [Compound 65] (X22-[Dab]T[Dap][Dab][Dab][dL]A[Dab][Dab]T; lactam 4-C) , thanks.
0.25 µg/mL
